# Test system: SF-539
# protocol.summary: Cytotoxicity against Homo sapiens (human) SF539 cells after 48 hr by SRB assay
# Type: functional
# setup.conditions: SF-539, 48 h
value.kind: GI50 (µM)

>>> measured("O=C1CCS/C(=N\\S(=O)(=O)c2ccc(N3N=C4c5ccccc5CC4C3c3cccs3)cc2)N1c1ccccc1 (centres undefined)")
21.8
>>> measured("O=C1CS/C(=N\\S(=O)(=O)c2ccc(N3N=C4c5ccccc5CC4C3c3cccs3)cc2)N(c2ccccc2)C1 (centres undefined)")
27.8
>>> measured("NS(=O)(=O)c1ccc(-n2nc3c(c2-c2cccs2)Cc2ccccc2-3)cc1")
21.1
>>> measured("O=C(NC(=S)NS(=O)(=O)c1ccc(N2N=C3c4ccccc4CC3C2c2cccs2)cc1)c1ccccc1 (centres undefined)")
27.9

The reported measurements were obtained from ChEMBL document CHEMBL3046832.
